B1: ANKRD40 (parent)
chain: VRIQNPSLRENDFIEIELDRQELT

Variants of: B1
run.description: protein stability index of a GFP-peptide fusion (GPS, HEK-293T) (PSI 1-6); higher = more stable;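 note: lentivirally expressed fusions sorted by FACS into six bins by GFP to DsRed ratio, PSI derived from sequencing read proportions per bin multiplied by bin number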
run.parameters: c terminus: a fixed tail appended
measurement.name: protein stability index

Solved cases (5 shown):
I16H 4.59
T24N 2.48
E17I 1.97
S7I 2.56
R20H 2.32

Exercise: For R9D , write its protein stability index.
Key: 2.23
